assay: MHET released, HPLC; higher = more MHET released; extreme values may be limits of the assay; settings: PET substrate: cryPow; 70 °C; pH 5.5; 24 h
Recorded MHET released for the following sequences
Report the value in mM with no unit label.

Example entries begin here.
biopolymer-sequence	unit-abbreviation	MHET released
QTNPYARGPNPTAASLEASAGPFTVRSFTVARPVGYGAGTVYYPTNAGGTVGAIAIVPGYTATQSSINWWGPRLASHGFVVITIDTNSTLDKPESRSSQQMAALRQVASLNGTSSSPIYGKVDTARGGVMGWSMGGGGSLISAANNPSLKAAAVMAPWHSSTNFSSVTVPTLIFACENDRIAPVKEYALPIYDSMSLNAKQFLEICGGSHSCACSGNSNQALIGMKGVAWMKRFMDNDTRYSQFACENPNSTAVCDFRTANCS [HotPETase]	mM	0.163
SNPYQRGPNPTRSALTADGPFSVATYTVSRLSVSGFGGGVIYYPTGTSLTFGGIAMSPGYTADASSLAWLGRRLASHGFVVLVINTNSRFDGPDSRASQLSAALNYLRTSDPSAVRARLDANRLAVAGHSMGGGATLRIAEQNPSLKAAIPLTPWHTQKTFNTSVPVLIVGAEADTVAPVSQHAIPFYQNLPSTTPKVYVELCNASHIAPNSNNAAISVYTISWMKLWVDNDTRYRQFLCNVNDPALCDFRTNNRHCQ [LCC-ICCG DAQI]	mM	0.0777
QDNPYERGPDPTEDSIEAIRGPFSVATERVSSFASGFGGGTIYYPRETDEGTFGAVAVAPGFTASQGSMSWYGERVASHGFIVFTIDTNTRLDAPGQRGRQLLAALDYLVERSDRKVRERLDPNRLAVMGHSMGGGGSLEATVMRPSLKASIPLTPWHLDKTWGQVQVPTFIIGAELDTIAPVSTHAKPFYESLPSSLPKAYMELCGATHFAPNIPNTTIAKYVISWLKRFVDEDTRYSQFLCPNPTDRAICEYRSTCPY [Cut190*SS]	mM	0.00708

Then there is this sequence:
Documented MHET released of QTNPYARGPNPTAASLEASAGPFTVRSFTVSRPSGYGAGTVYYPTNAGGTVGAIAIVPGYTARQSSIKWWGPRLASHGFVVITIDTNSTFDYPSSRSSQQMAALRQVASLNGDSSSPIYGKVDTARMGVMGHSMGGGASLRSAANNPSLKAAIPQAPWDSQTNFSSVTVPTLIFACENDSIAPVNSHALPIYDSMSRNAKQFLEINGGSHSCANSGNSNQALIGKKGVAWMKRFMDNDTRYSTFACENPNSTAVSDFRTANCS [DuraPETase] : 0
